# System: NCI-H522
# experiment: Cytotoxicity against human NCI-H522 cells after 24 hrs by SRB assay
# Assay type: functional, cell-based
# cond: NCI-H522, 24 h
endpoint: IC50

[[record]]
smi = "O=C(Nc1cc(-c2cccnc2)nc(NCCCN2CCOCC2)n1)c1cc(Br)cc(C(F)(F)F)c1"
endpoint = "IC50"
measurement = "1950 nM"


---

# experiment: Cytotoxicity against human IGROV1 cells assessed as cell growth at 10 uM after 24 hrs by SRB assay
# Assay type: functional
# cond: IGROV-1, 24 h, read-out: Activity
endpoint: growth at 10 µM (%)

[[record]]
smi = "O=C(Nc1cc(-c2cccnc2)nc(NCCCN2CCOCC2)n1)c1cc(Br)cc(C(F)(F)F)c1"
measurement = 63.1

[[record]]
smi = "O=C(Nc1cc(-c2cccnc2)nc(NCCCN2CCOCC2)n1)c1ccc(F)cc1Cl"
measurement = 95.9

[[record]]
smi = "COCCCNc1nc(NC(=O)c2ccc(Cl)cc2C)cc(-c2cccnc2)n1"
measurement = 106

[[record]]
smi = "COCCCNc1nc(NC(=O)c2cc(OC)cc(OC)c2)cc(-c2cccnc2)n1"
measurement = 102

[[record]]
smi = "Cc1cc(Cl)ccc1C(=O)Nc1cc(-c2cccnc2)nc(NCCCN2CCOCC2)n1"
measurement = 109

[[record]]
smi = "COCCCNc1nc(NC(=O)c2cc(Br)cc(C(F)(F)F)c2)cc(-c2cccnc2)n1"
measurement = 91.3

[[record]]
smi = "COc1cc(OC)cc(C(=O)Nc2cc(-c3cccnc3)nc(NCCCN3CCOCC3)n2)c1"
measurement = 97.4

